Data credit: PubChem BioAssay (NCI)

Tested on: T-47D breast
measurement-description: NCI-60 one-dose screen, 48 h (100 = growth as untreated, 0 = no growth, -100 = all killed)
study-conditions: 10 µM
Compounds without any hit were thinned out: in the full panel of roughly 83,000, 20% have a hit.
Everything with growth lower than 90% is label 0; everything else, including exactly 90%, is label 1.

1. O=C1NN(c2ccccc2)C(c2cccnc2)=N/C1=C\c1cccnc1 :: label 1
2. COc1ccc(C(=O)n2nc(CC(=O)NCc3ccccc3)nc2N)cc1 :: label 1
3. C=CCOc1ccc2c(c1)CC[C@@H]1[C@@H]2CC[C@]2(C)C(=O)/C(=N/O)C[C@@H]12 :: label 0
4. COc1ccc(-c2ccccc2)cc1C(=O)c1ccc(-c2ccccc2)cc1 :: label 0
5. CCOC(=O)/C(C#N)=C(/C)C1CC1 :: label 1
6. CC1(C)CCc2cc(-c3ccn(S(=O)(=O)c4ccc(Cl)cc4)n3)ccc2O1 :: label 0
7. O=NN(CCCl)C(=O)Nc1ccc(NC(=O)N(CCCl)N=O)cc1 :: label 1
8. O=C(Nc1cccc(Cl)c1)OCC(COC(=O)Nc1cccc(Cl)c1)(COC(=O)Nc1cccc(Cl)c1)[N+](=O)[O-] :: label 0
9. Cc1ccc([P+](Cc2ccccc2)(c2ccccc2)c2ccccc2)cc1 :: label 0

###

System: MCF7 breast
measurement-description: NCI-60 one-dose screen, 48 h (100 = growth as untreated, 0 = no growth, -100 = all killed)
study-conditions: 10 µM
The panel holds about 83,000 compounds, 20% with a hit somewhere; the sample as a whole holds those more often.
measured-metric: growth (%)

1. CCOC(=O)c1ccc(N(C=O)CCC(=O)CCl)cc1 :: -8.44
2. COC(=O)[C@]12CC[C@@H](C)[C@H](C)[C@@H]1C1=CC[C@@H]3[C@@]4(C)C[C@@H](O)[C@H](O)[C@@](C)(CO)[C@@H]4[C@H](O)C[C@@]3(C)[C@]1(C)CC2 :: -24.3
3. COc1ccc(-c2nnc(N3CCN(C(=O)CN4CCN(c5ccc(Cl)cc5)CC4)CC3)nc2-c2ccc(OC)cc2)cc1 :: 37.1
4. COC(=O)C1(C(=O)OC)C2C(=O)C3C(C21)C3(C(=O)OC(C)(C)C)C(=O)OC(C)(C)C (stereo not drawn) :: 103
5. C=C[C@]1(C)C=C2C(=O)[C@@]3(O)OC(=O)[C@@]4(CCCC(C)(C)[C@H]34)[C@@]2(O)CC1 :: 0.55
6. C/C(=N/NC(=O)c1sc(=S)n(C)c1N)c1cc2cc(Cl)ccc2o1 :: 82.7
7. COc1ccc(C2=Cc3ccc(OC(C)=O)cc3OC2)cc1 :: 101
8. COc1ccc(-c2[nH]ncc2-c2cc(OC)c(OC)c(OC)c2)cc1 :: 6.61
9. CNC(=O)c1cc(Oc2ccc(NC(=O)Nc3ccc(Cl)c(C(C)(C)C)c3)c(F)c2)ccn1 :: 16
10. COc1cccc2c1C(=O)c1c(O)c3c(c(O)c1C2=O)C[C@@](O)(C(=O)COC(=O)c1cccnc1)C[C@@H]3OC1CC(N)C(O)C(C)O1 (stereo partly drawn) :: 4.11
11. Clc1cc(Cl)c(OCCCCCCN2CCNCC2)c(Cl)c1 :: -24.5
12. O=c1ccc2nc(-c3ccccc3)nn(-c3ccccc3)c-2c1 :: -66.7
13. O=C(CCCC(=O)N/N=C/c1cc(Cl)ccc1O)N/N=C\c1cc(Cl)ccc1O :: 14.3
14. CCOc1nc(-c2ccccc2)cc2c(O)c(C(=O)NCCCO)[nH]c(=O)c12 :: 90.3
15. CCCCCCCCCCN=C(c1ccc(N(C)C)cc1)c1ccc(N(C)C)cc1 :: 11.9
16. C(=C\c1nc2ccccc2s1)/c1ccc(N2CCOCC2)s1 :: 80.2
17. Cc1nc2cc(-n3c(-c4ccc(F)cc4)nc4ccccc4c3=O)ccc2n1Cc1ccccc1 :: -24.9
18. CC(=O)OC1Oc2ccccc2-c2oc(=O)c(-c3cc(=O)oc4cc(O)ccc34)cc21 (stereo not drawn) :: 85.5
19. CC(C)OP(=O)(O)c1ncc(-c2ccc(C(F)(F)F)cc2)c(NC2CCCCCC2)n1 :: 51.1
20. N#CC1C=Cc2c(ccc3ccccc23)N1C(=O)c1ccccc1 (stereo not drawn) :: 21.5
21. O=C(Nc1cccc(-c2nc3ccccc3[nH]2)c1)c1cccc(NC(=O)c2ccco2)c1 :: 61.8
22. Fc1ccc(-c2cc(C(Cl)Cl)no2)cc1 :: 88.7
23. Cc1ccccc1[P+](Cc1ccccc1)(c1ccccc1)c1ccccc1 :: 10.4
24. O=C(CCl)N1c2ccccc2Sc2ccc3ccccc3c21 :: 10
25. O=C1c2cc(Cl)ccc2-c2c(O)cc(Cl)cc21 :: 77
26. CC(C)C(C)C(N)C(=O)O (stereo not drawn) :: 92.9
27. Oc1cc(O)c(Br)cc1Br :: 91.3
28. CCn1nc(-c2ccc(C(=O)OC)cc2)nc2c(=O)n(C)c(=O)nc1-2 :: 80
